Numbers sourced from patent US20040023884A1.

Assay Explanation: Heparin binding by tryptophan fluorescence quenching
Ends that are not written are not given here.
Measured Endpoint: Quenching Heparin
Answers without a unit are incomplete; give the number and then its unit.

Past entries and their recorded results:
>  <Substance>
KWKAQKRFLKKWKAAARFLK [BPI.47]

>  <Measured Endpoint>
Quenching Heparin

>  <Value>
47%

$$$$
>  <Substance>
KWKAAARFLKKWKAAARFLKKWKAAARFLK [BPI.69]

>  <Measured Endpoint>
Quenching Heparin

>  <Value>
42%

$$$$
>  <Substance>
BPI 73 (IKISGKWKAQFRFLK)

>  <Measured Endpoint>
Quenching Heparin

>  <Value>
19%

$$$$

Per the record, KWKAAARFLKKWKAAARFLK [BPI.48] has Quenching Heparin of 41%

----------
Assign Heparin Capacity to each entry below.
Assay Explanation: 3H-heparin binding assay (affinity and capacity)
Test Conditions: heparin bound at saturation
Ends that are not written are not given here.
Numbers only, in ng.

For every listed record, write down its Heparin Capacity.
1. IKKRAISFLGKKWQK [BPI.75]
2. KRFLKKWKAQKRFLK [BPI.9]
3. KWKAQKRFLK [BPI.8]
4. KSKVKWLIKLFHKK [BPI.100]

Resp:
1. 119.8
2. 212.5
3. 92.2
4. 314.0

For every listed record, write down its Heparin Capacity.
1. KAKVGWLIQLFHKK [BPI.32]
2. KSKVGWLIQLFLKK [BPI.87]
3. KWKAQKRFLKKWKAAARFLK [BPI.47]
4. KSKVGWLIQLFHAK [BPI.43]

Resp:
217.1
280.0
576.4
283.9

----------
Assay Explanation: Heparin binding by tryptophan fluorescence quenching
Test Conditions: Stern-Volmer plots
Ends that are not written are not given here.
Assign Kd to each entry below.
Numbers only, in nM.

For every listed record, write down its Kd.
1. KWKAQKRFLKKWKAAARFLK [BPI.47]
2. KWKAAARFLKKWKAAARFLK [BPI.48]
3. BPI 73 (IKISGKWKAQFRFLK)
4. KWKAAARFLKKWKAAARFLKKWKAAARFLK [BPI.69]

Resp:
[2200, 800, 700, 400]

----------
Tested on: E. coli 0111:B4 (smooth) bacteria
Assay Explanation: Radial diffusion bactericidal assay, E. coli 0111:B4
Format: cell-based
Test Conditions: radial diffusion; PROBIT analysis; E. coli O111:B4 (smooth)
Square brackets hold non-standard residues; d marks the D form. Peptide text beside a SMILES is read from it. Phe(4-NH2) = Nc1ccc(C[C@H](N)C(=O)O)cc1
Measured Endpoint: pmol added to well to achieve a 30 mm^2 bactericidal zone, E. coli O111:B4

Per the record, CC[C@H](C)[C@H](NC(=O)[C@H](CC(C)C)NC(=O)[C@H](Cc1c[nH]c2ccccc12)NC(=O)[C@H](Cc1ccc(N)cc1)NC(=O)[C@@H](NC(=O)[C@H](CCCCN)NC(=O)[C@H](CO)NC(=O)[C@@H](N)CCCCN)C(C)C)C(=O)N[C@@H](CCC(N)=O)C(=O)N[C@@H](CC(C)C)C(=O)N[C@@H](Cc1ccccc1)C(=O)N[C@@H](Cc1c[nH]cn1)C(=O)N[C@@H](CCCCN)C(=O)N[C@@H](CCCCN)C(=O)O [BPI.134] (H-KSKV[Phe(4-NH2)]WLIQLFHKK-OH; N-terminus and C-terminus assumed) has pmol added to well to achieve a 30 mm^2 bactericidal zone, E. coli O111:B4 of 580.11 pmol

----------
Test system: C. albicans
Assay Explanation: Radial diffusion fungicidal assay, Candida albicans
Format: cell-based
Test Conditions: radial diffusion
Ends that are not written are not given here.
Assign C. albicans: pmol required for 30 mm^2 zone to each entry below.
Numbers only, in pmol.

Past entries and their recorded results:
>  <Biosequence>
KSKVGWLIQLAHKK [BPI.41]

>  <Value>
733.70

$$$$
>  <Biosequence>
KSKVGWLIQLFAKK [BPI.42]

>  <Value>
548.49

$$$$
>  <Biosequence>
KSAVGWLIQLFHKK [BPI.33]

>  <Value>
603.44

$$$$
>  <Biosequence>
KSKVGYLIQLFHKK [BPI.139]

>  <Value>
322.96

$$$$

Per the record, KAKVGWLIQLFHKK [BPI.32] has C. albicans: pmol required for 30 mm^2 zone of 293.62

----------
Assay Explanation: LPS binding by tryptophan fluorescence quenching
Ends that are not written are not given here.
Measured Endpoint: Quenching LPS (%)
Give bare numbers, in %.

Past entries and their recorded results:
>  <Substance>
KWKAAARFLKKWKAAARFLKKWKAAARFLK [BPI.69]

>  <Quenching LPS [%]>
72

$$$$
>  <Substance>
BPI 73 (IKISGKWKAQFRFLK)

>  <Quenching LPS [%]>
47

$$$$
>  <Substance>
KWKAQKRFLKKWKAAARFLK [BPI.47]

>  <Quenching LPS [%]>
41

$$$$

Next item in the queue.
Per the record, KWKAAARFLKKWKAAARFLK [BPI.48] has Quenching LPS of 62

----------
Test system: LPS-stimulated TNF production in THP-1 cells
Assay Explanation: LPS neutralization by TNF cellular toxicity assay (THP-1 / L929 cells)
Assay type: cell-based, human
Test Conditions: 5 ng/mL LPS
Ends that are not written are not given here.
Measured Endpoint: IC50 (LPS-stimulated TNF production, L929 cell killing) (µg/mL)
Give bare numbers, in µg/mL.

For every listed record, write down its IC50 (LPS-stimulated TNF production, L929 cell killing).
1. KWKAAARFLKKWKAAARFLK [BPI.48]
2. KWKAQKRFLKKWKAQKRFLK-NH2 (C-terminus assumed) [BPI.7]
3. KSKVGWLIQLFHKK-NH2 (C-terminus assumed) [BPI.13]

Resp:
1: 1; 2: 30; 3: 20

----------
Assign pmol added to well to achieve a 30 mm^2 bactericidal zone, S. aureus to each entry below.
Tested on: Staphylococcus aureus
Assay Explanation: Radial diffusion bactericidal assay, Staphylococcus aureus
Format: cell-based
Test Conditions: radial diffusion; PROBIT analysis; S. aureus
Square brackets hold non-standard residues; d marks the D form. Ends that are not written are not given here. 1Nal = N[C@@H](Cc1cccc2ccccc12)C(=O)O

Past entries and their recorded results:
>  <Substance>
IKISGKWKAQFRFLK [BPI.73]

>  <Value>
2,313,133.50 pmol

$$$$
>  <Substance>
IKISGKWKAQKRFLKKSKVGWLIQLFHKK [BPI.63]

>  <Value>
2,101.84 pmol

$$$$
>  <Substance>
IKISGKAβ-(1-naphthyl)KAAβ-(1-naphthyl)Aβ-(1-naphthyl)RFLK (IKISGK[1Nal]KA[1Nal][1Nal]RFLK) [BPI.122]

>  <Value>
2,631,667.24 pmol

$$$$
>  <Substance>
KSKVGWLIQLFHKAβ-(1-naphthyl) (KSKVGWLIQLFHK[1Nal]) [BPI.111]

>  <Value>
12,467.42 pmol

$$$$
>  <Substance>
KSKVGWLIQLFHKW [BPI.108]

>  <Value>
1,413,131,872.57 pmol

$$$$

Per the record, BPI.65(Ox) (CIKISGKWKAQKRFLKC; not fully specified (bridges); also: oxidized) has pmol added to well to achieve a 30 mm^2 bactericidal zone, S. aureus of 11,960.00 pmol

----------
Test system: Staphylococcus aureus
Assay Explanation: Radial diffusion bactericidal assay, Staphylococcus aureus
Format: cell-based
Test Conditions: radial diffusion; PROBIT analysis; S. aureus
Ends that are not written are not given here.
Assign pmol added to well to achieve a 30 mm^2 bactericidal zone, S. aureus to each entry below.

>  <Biosequence>
KSKVGWLIQLFHKF [BPI.96]

>  <Value>
91,585.37 pmol

$$$$

Next item in the queue.
Reported pmol added to well to achieve a 30 mm^2 bactericidal zone, S. aureus (Staphylococcus aureus) for entry IKISGKWKAQWRFLK [BPI.77] is 1,684.35 pmol

----------
Assay Explanation: 3H-heparin binding assay (affinity and capacity)
Test Conditions: read-out: Heparin Affinity
Ends that are not written are not given here.
Measured Endpoint: pKd
Numbers only, as −log10 of the molar value.

Past entries and their recorded results:
>  <Substance>
IKISGKWKAFFRFLK [BPI.88]

>  <pKd>
5.79

$$$$
>  <Substance>
IKISGAWKAQKRFLK [BPI.20]

>  <pKd>
6.31

$$$$
>  <Substance>
KWKAQKRFLK [BPI.8]

>  <pKd>
6.24

$$$$
>  <Substance>
IKISGKWKAQWRFLK [BPI.77]

>  <pKd>
6.52

$$$$
>  <Substance>
SVHVHISKSKVGWLIQLFHKKIESALRNK [BPI.12]

>  <pKd>
6.55

$$$$
>  <Substance>
IKISGKWKAFKRFLK [BPI.81]

>  <pKd>
6.48

$$$$
>  <Substance>
KSKVGWLIQLFHKKKSKVGWLIQLFHKK-NH2 (C-terminus assumed) [BPI.29]

>  <pKd>
6.37

$$$$
>  <Substance>
KWKAQKRFLKKSKVGWLIQLFHKK-NH2 (C-terminus assumed) [BPI.30]

>  <pKd>
6.23

$$$$

For every listed record, write down its pKd.
1. KSKVGWLIQLFHAK [BPI.43]
2. KSKVKWLIQLFHKK [BPI.97]

Resp:
1: 6.31; 2: 6.12

For every listed record, write down its pKd.
1. CIKISGKWKAQKRFLKC [BPI.65 (red.)]
2. KSKVGWLIQLWHKK [BPI.82]
3. IKISGKWKAQKRALK [BPI.26]
4. IKISGKWKAQFDRFLK [BPI.76]
5. KAKVGWLIQLFHKK [BPI.32]
6. KSKVGWLILLFHKK [BPI.86]
7. KSKVGWLIFLFHKK [BPI.91]

Resp:
1: 6.67; 2: 6.37; 3: 6.64; 4: 6.89; 5: 6.47; 6: 6.42; 7: 6.54

For every listed record, write down its pKd.
1. IKISGKWKAQARFLK [BPI.24]
2. KSKVGWLIQLFFKK [BPI.94]
3. IKISGKAKAQKRFLK [BPI.21]

Resp:
6.78
6.39
6.64

For every listed record, write down its pKd.
1. KSKVGWLAQLFHKK [BPI.38]
2. CIKISGKWKAQKRFLK [BPI.58]

Resp:
6.24
6.71
